# Measured target: Cell division cycle 7-related protein kinase (Homo sapiens)
Recorded endpoint: Ki

Query: Tell me Ki reported for "CN(C)c1ccc(-c2c(-c3ccc4[nH]nc(N)c4c3)nnn2Cc2ccccc2)cc1"
Reply: 0.398 nM

----------
pKi data for Cyclin-dependent kinase 2 (Homo sapiens) (UniProt P24941) follow.
# pKi = -log10(concentration in molar units)

Example results:
Query: Quote pKi with test system Cyclin-dependent kinase 2 (Homo sapiens) (UniProt P24941) for "CCOC(=O)c1c(NC(=O)C2C(C)(C)C2(C)C)sc2cnccc12"
Reply: 6.00

Query: Quote pKi with test system Cyclin-dependent kinase 2 (Homo sapiens) (UniProt P24941) for "Cc1ccccc1-c1c(-c2ccc3n[nH]c(C)c3c2)nnn1Cc1ccccc1"
Reply: 8.40

Query: Quote pKi with test system Cyclin-dependent kinase 2 (Homo sapiens) (UniProt P24941) for "Cc1cccc(CNc2cc(-c3c[nH]c4ncccc34)ncn2)c1"
Reply: 7.40

Query: Quote pKi with test system Cyclin-dependent kinase 2 (Homo sapiens) (UniProt P24941) for "c1ccc(Cn2cc(-c3ccc4[nH]nc(-c5cn(Cc6ccccc6)nn5)c4c3)nn2)cc1"
Reply: 8.30

Query: Quote pKi with test system Cyclin-dependent kinase 2 (Homo sapiens) (UniProt P24941) for "CC(C)(CO)CCCNc1cc(-c2c[nH]c3ncccc23)cc(Cl)n1"
Reply: 7.00

Further cases:
Query: Quote pKi with test system Cyclin-dependent kinase 2 (Homo sapiens) (UniProt P24941) for "Nc1n[nH]c2ccc(-c3nnn(Cc4ccccc4)c3C3CC3)cc12"
Reply: 7.10

Query: Quote pKi with test system Cyclin-dependent kinase 2 (Homo sapiens) (UniProt P24941) for "CCCCNc1cc(-c2ccncc2)cc2[nH]nc(N)c12"
Reply: 6.70

Query: Quote pKi with test system Cyclin-dependent kinase 2 (Homo sapiens) (UniProt P24941) for "Fc1ccc2c(c1)-c1[nH]ncc1CS2"
Reply: 4.70

----------
# Measured target: Mitogen-activated protein kinase 14 (Homo sapiens) (UniProt Q16539)
# Sequence (Q16539 whole entry, looked up): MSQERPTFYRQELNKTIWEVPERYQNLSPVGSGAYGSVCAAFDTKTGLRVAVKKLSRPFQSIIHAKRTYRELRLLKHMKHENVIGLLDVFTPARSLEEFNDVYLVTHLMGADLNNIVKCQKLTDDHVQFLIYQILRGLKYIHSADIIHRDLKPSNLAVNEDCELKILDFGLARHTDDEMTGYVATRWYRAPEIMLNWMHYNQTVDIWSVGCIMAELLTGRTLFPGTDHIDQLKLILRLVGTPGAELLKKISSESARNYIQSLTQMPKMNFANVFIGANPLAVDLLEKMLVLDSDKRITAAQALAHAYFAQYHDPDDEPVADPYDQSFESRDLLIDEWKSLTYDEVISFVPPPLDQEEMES
# Measurement protocol: PubChem AID 493040
# Test context: kinase panel binding, pKi; MAPK14
pKi: −log10 of the molar value.
The threshold is inclusive: pKi of exactly 6 counts as class 1; values below receive class 0.

Worked cases, answers included:
Query: Can "CC(C)(C)c1cc(NC(=O)C(=O)c2cccc3ccccc23)n(-c2ccc(OCC(=O)NCCO)cc2)n1" be said to have pKi at or above 6?
Reply: class 1

Query: Can "NC(=O)c1ccc2nc(-c3ccc([N+](=O)[O-])o3)cn2c1" be said to have pKi at or above 6?
Reply: class 0

Query: Can "Cc1cc(=O)[nH]c2n[nH]c(-c3cccc(C(F)(F)F)c3)c12" be said to have pKi at or above 6?
Reply: class 1

Query: Can "Nc1ccc2cc(NCCc3ccccc3)cc(Nc3ncccn3)c2n1" be said to have pKi at or above 6?
Reply: class 0

Query: Can "c1ccc(-c2ncc3ccccn23)cc1" be said to have pKi at or above 6?
Reply: class 0

Query: Can "CC(C)(C)c1cc(NC(=O)C(=O)c2cccc3ccccc23)n(-c2ccc(OCCC(N)=O)cc2)n1" be said to have pKi at or above 6?
Reply: class 1

Query: Can "CC(C)(C)c1cc(NC(=O)Nc2cccc3ccccc23)n(-c2cccc(C(=O)N(CCN)CCO)c2)n1" be said to have pKi at or above 6?
Reply: class 1

Pending molecule:
Query: Can "CC(C)(C)c1cc(NC(=O)c2cc3ccccc3s2)n(-c2ccc(OCC(=O)O)cc2)n1" be said to have pKi at or above 6?
Reply: class 0
